B1: HDV Ribozyme (parent)
chain: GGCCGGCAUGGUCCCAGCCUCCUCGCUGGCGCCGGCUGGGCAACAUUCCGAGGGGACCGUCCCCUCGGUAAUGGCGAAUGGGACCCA

Variants of: B1
assaySummary: self-cleavage, relative activity (ratio to wild type); higher = more cleavage; co-transcriptional

- chain: "GGCCGGCAUGGUCCCAGCCUCCUCGCUGGCGCCGGGUGGGCAACAUUCCGAGGGGACCGUCCCCGCGGUAAUGGCGAAUGGGACCCA [C36G U65G]"
  self-cleavage: 0.244
- chain: "GGCCGGCAUGGUCCCAGCCUCCUCGCUGGCGCCGGCUGGGCAACACUCCGAGGGGACCGUCCCCUCGGUAAUGGCGAAUGGGAUCCA [U46C C84U]"
  self-cleavage: 0.485
- chain: "GGCCUGCAUGUUCCCAGCCUCCUCGCUGGCGCCGGCUGGGCAACAUUCCGAGGGGACCGUCCCCUCGGUAAUGGCGAAUGGGACCCA [G5U G11U]"
  self-cleavage: 0.156
- chain: "GGCCGGCAUGGUCCCAGCCUCCUCGCUGGCGCCGGCUGGGCAACGUUCCGAGGGGACCGUCCCCUCGGUAAUGGCGAAUGGGACGCA [A45G C85G]"
  self-cleavage: 0.88
- chain: "GGCCGGCAUGGUCCCAGCCUCCUCGCUGGCGCCGGCAGGGCAACAUUCCGAGGGGACCGGCCCCUCGGUAAUGGCGAAUGGGACCCA [U37A U60G]"
  self-cleavage: 0.192
- chain: "GGCCGGCAUGGUCCCAGCCUCCUCGCUGGCGCCGGCUGGGCAACAUUCCGAGGGGACCGGCCCCUCAGUAAUGGCGAAUGGGACCCA [U60G G67A]"
  self-cleavage: 0.91
- chain: "GGCCGGCAUGGUCCCAGUCUCCUCGCUGGCGCCGGCUGGGUAACAUUCCGAGGGGACCGUCCCCUCGGUAAUGGCGAAUGGGACCCA [C18U C41U]"
  self-cleavage: 0.49
- chain: "GGGCGGCAUGGUCCCAGCCUCCUCGAUGGCGCCGGCUGGGCAACAUUCCGAGGGGACCGUCCCCUCGGUAAUGGCGAAUGGGACCCA [C3G C26A]"
  self-cleavage: 0.669
- chain: "GGCCGGCAUGGUCCCAGCCUCCUCUCUGGCGCCGGCUGGGCAACAUUCCGACGGGACCGUCCCCUCGGUAAUGGCGAAUGGGACCCA [G25U G52C]"
  self-cleavage: 0.208
- chain: "GGCCGGCAUGGUCCCAGCCUCCUCGCUGGCGCCGGCUGGGCAACCUUCCGAGGGGACCGUCACCUCGGUAAUGGCGAAUGGGACCCA [A45C C62A]"
  self-cleavage: 0.584
- chain: "GGCCGGCAUGGUCCCAGCCUCCUCGCUGGCGCCGUCUGGGCAACAUUCCGAGGGGACCGUCCCCUCGGUAAUGGCGAAUGUGACCCA [G35U G81U]"
  self-cleavage: 0.156
- chain: "GGCCGGCAUGGCCCCAGCCUCCUCGCUGGCGCCGGCUGGGCAACAUUCCGAGGGGACCGUCCCCUCGGUAAUGGCGAAUGGGACCUA [U12C C86U]"
  self-cleavage: 0.578
- chain: "GGCUGGCAUGGUCCCAGCCUCUUCGCUGGCGCCGGCUGGGCAACAUUCCGAGGGGACCGUCCCCUCGGUAAUGGCGAAUGGGACCCA [C4U C22U]"
  self-cleavage: 0.259
- chain: "GGCCGGCAUGGUCCCAGCCUCCUCGCUGGCGCCGGCUGGGCAACAUUCCGAGAGGACCGUCCCCUCGUUAAUGGCGAAUGGGACCCA [G53A G68U]"
  self-cleavage: 0.807
- chain: "GGCCGGCAUGGUCCCAGCCUCCUCGCUGGCGCCGGCAGGGGAACAUUCCGAGGGGACCGUCCCCUCGGUAAUGGCGAAUGGGACCCA [U37A C41G]"
  self-cleavage: 0.0723
- chain: "GGCUGGCAUGGUCCCAGCCUCCUCGCUGGCGCCGGCUGGGCAACAUUCCGAGGGGACCGUCCCCUCGGUAAUGGCGAAUGGGACCCU [C4U A87U]"
  self-cleavage: 0.817
- chain: "GGCCGGCAUGGUCCCAGCCUCCUCGCUGGCGCCGGGUGGGCAACAUUCCGGGGGGACCGUCCCCUCGGUAAUGGCGAAUGGGACCCA [C36G A51G]"
  self-cleavage: 0.151
- chain: "GGCCGGCAUGGUCCCAGCCUCCUCGCUGGCGCCGGCUGGGCAACAUUCCGAGGGCACCGUCCCCUCGGUAAGGGCGAAUGGGACCCA [G55C U72G]"
  self-cleavage: 0.449
- chain: "GGCCGGCAUGGUCCCAGCCUCCUCGCUGGCGCCGGCUGGGCAACACUCCGAGGGGACCGUCCCCUCGGUAAUGGCGAAUGGGCCCCA [U46C A83C]"
  self-cleavage: 0.237
- chain: "GGCCGGCAUGGUCACAGCCUCCUCGCUGGCGCCGGCUGGGCAACAUUCCGAGAGGACCGUCCCCUCGGUAAUGGCGAAUGGGACCCA [C14A G53A]"
  self-cleavage: 0.499
- chain: "GGCCCGCAUGGUCCCAGCCUCCUCGCUGGCUCCGGCUGGGCAACAUUCCGAGGGGACCGUCCCCUCGGUAAUGGCGAAUGGGACCCA [G5C G31U]"
  self-cleavage: 0.0405
- chain: "GGCCGGCAUGGUCCCAGCCUCGUCGCUGGCGCCGGCUGGGCAACAUGCCGAGGGGACCGUCCCCUCGGUAAUGGCGAAUGGGACCCA [C22G U47G]"
  self-cleavage: 0.0791
- chain: "GGCCGGGAUGGUGCCAGCCUCCUCGCUGGCGCCGGCUGGGCAACAUUCCGAGGGGACCGUCCCCUCGGUAAUGGCGAAUGGGACCCA [C7G C13G]"
  self-cleavage: 0.0554
- chain: "CGCCGGCAUGGUCUCAGCCUCCUCGCUGGCGCCGGCUGGGCAACAUUCCGAGGGGACCGUCCCCUCGGUAAUGGCGAAUGGGACCCA [G1C C14U]"
  self-cleavage: 0.213
- chain: "GGCCGGCAUGGUCCCAGCCUCCUCGCUGGCGCGGGCUAGGCAACAUUCCGAGGGGACCGUCCCCUCGGUAAUGGCGAAUGGGACCCA [C33G G38A]"
  self-cleavage: 0.0308
- chain: "GGCCGGCAUGGUCCCAGCCUGCUCGCUGGCGCCGGCUGGGCAACAUUCCGAGGGGACCGUCCCCUCGGUAAUGGCGAAUGGGACCCC [C21G A87C]"
  self-cleavage: 0.0594
- chain: "GGGCGGCAUGGUCCCAGCCUCCUCGCUGGCGCCGGCUGGGCAACAUUCCGAGGGGGCCGUCCCCUCGGUAAUGGCGAAUGGGACCCA [C3G A56G]"
  self-cleavage: 0.692
- chain: "UGCCGGCGUGGUCCCAGCCUCCUCGCUGGCGCCGGCUGGGCAACAUUCCGAGGGGACCGUCCCCUCGGUAAUGGCGAAUGGGACCCA [G1U A8G]"
  self-cleavage: 0.426
- chain: "GGCCGGCAUGGUCCCAGCCUCCUCGCUAGCGCCAGCUGGGCAACAUUCCGAGGGGACCGUCCCCUCGGUAAUGGCGAAUGGGACCCA [G28A G34A]"
  self-cleavage: 0.175
- chain: "GGCCGGCAUGUUCCCAGCCUCCUCGCUGGCGCCGGCUGGGCAACUUUCCGAGGGGACCGUCCCCUCGGUAAUGGCGAAUGGGACCCA [G11U A45U]"
  self-cleavage: 0.217
- chain: "GGCCGGCAUGGUCCCACCCUCCUCGCUGGCGCCGGCUGGGCAACAUUCAGAGGGGACCGUCCCCUCGGUAAUGGCGAAUGGGACCCA [G17C C49A]"
  self-cleavage: 0.467
- chain: "GGCCGGCAUGGUCCCAGCCUCCUCGCUGGCGCCGGCUGGGCGACAUUCCGAGCGGACCGUCCCCUCGGUAAUGGCGAAUGGGACCCA [A42G G53C]"
  self-cleavage: 0.391
- chain: "GGCCGGCAUGGUCCCAGCCUCCUCGCUGGCGCGGGCUGGGCAACAUUCCGAGGGGACCGUCCCCCCGGUAAUGGCGAAUGGGACCCA [C33G U65C]"
  self-cleavage: 0.115
- chain: "GGCCGGCAUGGUCCCAGCUUCCUCGUUGGCGCCGGCUGGGCAACAUUCCGAGGGGACCGUCCCCUCGGUAAUGGCGAAUGGGACCCA [C19U C26U]"
  self-cleavage: 0.718
- chain: "GGCCGGCAUGGUCCAAGCCUGCUCGCUGGCGCCGGCUGGGCAACAUUCCGAGGGGACCGUCCCCUCGGUAAUGGCGAAUGGGACCCA [C15A C21G]"
  self-cleavage: 0
- chain: "GGCUGGCAUGGUCCCAGCCUCCUCGCUGGCGCCGGCUGGGCAACAUUCCGAGGGGACCGUCCCCUCGGUAAUGGUGAAUGGGACCCA [C4U C75U]"
  self-cleavage: 0.155
- chain: "GGCCGGCAUGGUCCCAGCCUCCUCGCUGGCGCCGGCUGGGCAACAUACCGAGGGGACCGUCCCCGCGGUAAUGGCGAAUGGGACCCA [U47A U65G]"
  self-cleavage: 0.931
- chain: "GGCCGGCAUGGUCCCAGCCUCCUCGCUGGCGCCGGCUGGGCAACAUUCCGAGGGGACCGUCCCCUCGGUAAUGGCGAAUCAGACCCA [G80C G81A]"
  self-cleavage: 0.089
- chain: "GGCCGGCAUGGACCCAGCCUCCUCGCUGGCGCCGGCUGGGCAACAUUCCGAGGGGACCGUCCCCUCGUUAAUGGCGAAUGGGACCCA [U12A G68U]"
  self-cleavage: 0.312
- chain: "GGCCGGCAUGGUCCCAGCCUCCUCGCUGGCGCCGGCUGGGCAACAUUCGGAGGGGACCGUCCCCUCGGUAAUGGCAAAUGGGACCCA [C49G G76A]"
  self-cleavage: 1.1
- chain: "GGCCGGCAUGGUCCCAGACUCCUCGCUGGCGCCGGCUGGGCAACAUUCCGAGGGGACCCUCCCCUCGGUAAUGGCGAAUGGGACCCA [C18A G59C]"
  self-cleavage: 0.0639
- chain: "GGCCGGCAUGGUCCCAGCUUCCUCGCUGGCGCCGGCUGGGCAACAUUCCGAGGGGAACGUCCCCUCGGUAAUGGCGAAUGGGACCCA [C19U C57A]"
  self-cleavage: 0.0886
- chain: "GGCCGGCAUGGGCCCAGCCUCCUCGCUGGCGCCGGCUGGGCAACAUUCCGAGGGGACCGUCCCCUCGGUAAUGGCGAAUGGGUCCCA [U12G A83U]"
  self-cleavage: 0.867
- chain: "GGCCGGCAUGGUCCCAGCCUCCUCGCUGGCGCAGGCUGGGCAACAUUCCGAGGGGACCGUCCACUCGGUAAUGGCGAAUGGGACCCA [C33A C63A]"
  self-cleavage: 0.196
- chain: "GGCCGGCAUGGUCCCAGCCUCCUGGCUGGCGCCGGCUGGGCAACAUUCCGAGGGGACCGUCCCCUCGGUAAUCGCGAAUGGGACCCA [C24G G73C]"
  self-cleavage: 0.107
- chain: "GGCCGGCAUGGUCCCAGCCUCCUCGCUGGCGCCGGCUGGGCAACAUUCCGAGGGGACCGACCCCUCUGUAAUGGCGAAUGGGACCCA [U60A G67U]"
  self-cleavage: 0.818
- chain: "GGCCGGCAUGGUCCCAGCCUCCUCGCUGGCGCCGGCUUGGCAACAUUCCGAGGGGUCCGUCCCCUCGGUAAUGGCGAAUGGGACCCA [G38U A56U]"
  self-cleavage: 0.273
- chain: "GGCCGGCAUGGUCCCAGCCUCCUCGCUGGCGCCGGCUGGAUAACAUUCCGAGGGGACCGUCCCCUCGGUAAUGGCGAAUGGGACCCA [G40A C41U]"
  self-cleavage: 0.87
- chain: "GGCCGGCAUGGUCCCAGCCUCCUCGCUGGCGCCGGCUGGGGAACAUUCCGAGGGGACCGACCCCUCGGUAAUGGCGAAUGGGACCCA [C41G U60A]"
  self-cleavage: 0.733
- chain: "GGCCGGCAUGGUCCCAGCCUCUUCGCUGGCGCCGGCUGGGCAACAUUCCGAGGGGAGCGUCCCCUCGGUAAUGGCGAAUGGGACCCA [C22U C57G]"
  self-cleavage: 0.914
- chain: "GGCCGGCAUGGUCCCAGCCUCCUCGCUGGCGCGGGCUGGGUAACAUUCCGAGGGGACCGUCCCCUCGGUAAUGGCGAAUGGGACCCA [C33G C41U]"
  self-cleavage: 0.119
- chain: "GGCCGGCAUGGUCCCGGCCUCCUCGCUGGCGCCGACUGGGCAACAUUCCGAGGGGACCGUCCCCUCGGUAAUGGCGAAUGGGACCCA [A16G G35A]"
  self-cleavage: 0.696
- chain: "GGCCGGUAUGGUCCCAGCCUCCUCGCUGGCGCCGGCUGGGCAACAUUCCGAGGGGACCGUCCCCUCGGUAAUGUCGAAUGGGACCCA [C7U G74U]"
  self-cleavage: 0.202
- chain: "GGCCGGCAUGGUCCCAGCCUCCUCGCCGGCGCCGGCUGGGCAACAUUCCGAGGGGACCGUCCCCUCGGUAACGGCGAAUGGGACCCA [U27C U72C]"
  self-cleavage: 0.166
- chain: "GGCCGGCAUGGUCCCAGCCUGCUCGCUGGCGCAGGCUGGGCAACAUUCCGAGGGGACCGUCCCCUCGGUAAUGGCGAAUGGGACCCA [C21G C33A]"
  self-cleavage: 0
- chain: "GGCCGGCAUGGUCCCAGCCUCCUCGCUGGCGCCGGCUGGGCAACAUUCCGAGGGGACCGUCCCCUCGGAACUGGCGAAUGGGACCCA [U69A A71C]"
  self-cleavage: 0.935
- chain: "GGCCGCCAUGGUCCCAGCCUCCUCGCUGGCGCCGGCUGGGCAACAUUCCGAGGGGACCGUCCCCUCGGUAAUGGCAAAUGGGACCCA [G6C G76A]"
  self-cleavage: 0.297
- chain: "GGCCGGCAUGGUCCAAGCCUCCUCGCUGGCGCCGGCUGGGCAACAUUCCGAGGGGACCGUCCCCUCGGUAAUGGCGAAUGGAACCCA [C15A G82A]"
  self-cleavage: 0.369
